tested on: Ruminococcus gnavus DSM 108212; assay: fold change of 2-Phenylethylamine concentration vs plate DMSO controls (fold change (ratio)); higher = more amine produced, active = hit call of the paper (significant change in both replicates, either direction); details: incubation time: 27 h, anaerobic, 37 °C
Where a name gives a salt, the structure may show the parent alone.
reportedProperty: fold change of 2-Phenylethylamine concentration
Just the number, please, no unit after it.

Recorded results for 3 compounds are shown here.
| compound | studySystem | experimentalValue |
| --- | --- | --- |
| O=C1NS(=O)(=O)c2ccccc21 [Saccharin] (50 µM) | Ruminococcus gnavus DSM 108212 | 1.02 |
| Oc1cc(O)c2c(c1)O[C@H](c1ccc(O)c(O)c1)[C@@H](O)C2 [Cianidanol] (20 µM) | Ruminococcus gnavus DSM 108212 | 0.978 |
| CN(C)CCCO[C@@H]1[C@H]2OC(C)(C)O[C@H]2O[C@@H]1[C@H](O)CO [Amiprilose hydrochloride] (20 µM) | Ruminococcus gnavus DSM 108212 | 1.01 |

Provide measured fold change of 2-Phenylethylamine concentration value, entry: CN1CCCN=C1/C=C/c1cccs1 [Pyrantel tartrate] (20 µM) 1.01

Provide measured fold change of 2-Phenylethylamine concentration value, entry: CCN(CC)CC#CCOC(=O)C(O)(c1ccccc1)C1CCCCC1 (stereo unspecified) [Oxybutynin chloride] (20 µM) 1.01

Provide measured fold change of 2-Phenylethylamine concentration value, entry: CC(C)c1nc(N(C)S(C)(=O)=O)nc(-c2ccc(F)cc2)c1/C=C/[C@@H](O)C[C@@H](O)CC(=O)O [Rosuvastatin] (20 µM) 1
